The reported numbers originate from the MegaScale stability set (Tsuboyama et al. 2023).

B1: EHEE_rd4_0726 (parent)
chain: DIEITTNGEEDAKRVIKELQKRNLEYHIEVHGNQWVIKVR

variants of: B1; assay: folding stability dG (cDNA display proteolysis); higher = more stable; conditions: PBS, room temperature
Below, each entry is listed alongside its reported folding stability dG.
Output spec: scalar in kcal/mol, unitless text.

In the examples that follow, each entry is paired with its recorded folding stability dG.
>>> df
   variantcode  measured
0         E25K      2.76
1         R40T      2.48
2         Q20L      2.39
3         I37F      1.95

Short answer for "K38F" : folding stability dG was 2.63
